biological target: Melanocortin receptor 4 (Homo sapiens); experiment: Binding activity was measured using membranes of Hi5 cells expressing the human MC4R receptors
pIC50: −log10 of the molar value.
observation-type: pIC50

O=C(N[C@H](Cc1ccc(Cl)cc1)C(=O)N1CCC(Cn2cncn2)(C2CCCCC2)CC1)C1CNC1    7.80

[A] O=C(CCNC(=O)[C@H]1CCCNC1)N[C@H](Cc1ccc(Cl)cc1)C(=O)N1CCC(Cn2cncn2)(C2CCCCC2)CC1
[B] CN(C)CCC(=O)NCCC(=O)N[C@H](Cc1ccc(Cl)cc1)C(=O)N1CCC(Cn2cncn2)(C2CCCCC2)CC1
QUERY: Name the one with the greater pIC50 value, either A or B as given. Could you answer with the label of the item you picked?
RESULT: B
(B: 7.96, A: 7.66)

[A] O=C(CCNC(=O)[C@@H]1CCCNC1)N[C@H](Cc1ccc(Cl)cc1)C(=O)N1CCC(Cn2cncn2)(C2CCCCC2)CC1
[B] NCCC(=O)N[C@H](Cc1ccc(Cl)cc1)C(=O)N1CCC(Cn2cncn2)(C2CCCCC2)CC1
QUERY: Name the one with the greater pIC50 value, either A or B as given. Could you answer with the label of the item you picked?
RESULT: B

[P] O=C(C[C@@H]1CCCN1)N[C@H](Cc1ccc(Cl)cc1)C(=O)N1CCC(Cn2cncn2)(C2CCCCC2)CC1
[Q] CN(C)CCC(=O)N[C@H](Cc1ccc(Cl)cc1)C(=O)N1CCC(Cn2cncn2)(C2CCCCC2)CC1
QUERY: Just tell me: smaller pIC50 value, P or Q ? Could you answer with the label of the item you picked?
RESULT: P

[a] O=C(CCN1CCCCC1)NCCC(=O)N[C@H](Cc1ccc(Cl)cc1)C(=O)N1CCC(Cn2cncn2)(C2CCCCC2)CC1
[b] COCC(=O)NCCC(=O)N[C@H](Cc1ccc(Cl)cc1)C(=O)N1CCC(Cn2cncn2)(C2CCCCC2)CC1
[c] O=C(CCNC(=O)c1ccccc1)N[C@H](Cc1ccc(Cl)cc1)C(=O)N1CCC(Cn2cncn2)(C2CCCCC2)CC1
QUERY: // ascending sort on recorded pIC50 Note for the reader: the ranking is given by listing the labels in the order requested.
RESULT: c, b, a
(c: 7.05, b: 7.68, a: 7.92)

[1] CC(C)(N)CC(=O)N[C@H](Cc1ccc(Cl)cc1)C(=O)N1CCC(Cn2cncn2)(C2CCCCC2)CC1
[2] CC(C)(CN)C(=O)N[C@H](Cc1ccc(Cl)cc1)C(=O)N1CCC(Cn2cncn2)(C2CCCCC2)CC1
QUERY: Just tell me: smaller pIC50 value, 1 or 2 ? Could you answer with the label of the item you picked?
RESULT: 2

[I] O=C(N[C@H](Cc1ccc(Cl)cc1)C(=O)N1CCC(Cn2cncn2)(C2CCCCC2)CC1)[C@@H]1CCCNC1
[II] O=C(CCN(Cc1ccccc1)Cc1ccccc1)N[C@H](Cc1ccc(Cl)cc1)C(=O)N1CCC(Cn2cncn2)(C2CCCCC2)CC1
[III] O=C(CCNC(=O)C(F)(F)F)N[C@H](Cc1ccc(Cl)cc1)C(=O)N1CCC(Cn2cncn2)(C2CCCCC2)CC1
QUERY: // ascending sort on recorded pIC50 Note for the reader: the ranking is given by listing the labels in the order requested.
RESULT: III, II, I

[I] O=C(N[C@H](Cc1ccc(Cl)cc1)C(=O)N1CCC(Cn2cncn2)(C2CCCCC2)CC1)[C@H]1CCCNC1
[II] O=C(CCNCc1ccccc1)N[C@H](Cc1ccc(Cl)cc1)C(=O)N1CCC(Cn2cncn2)(C2CCCCC2)CC1
QUERY: Name the one with the greater pIC50 value, either I or II as given. Could you answer with the label of the item you picked?
RESULT: I

====

test: Intrinsic activity was expressed as percent of maximal activity achieved by NDP-alpha-MSH.; format: functional
Max stimulation overview
Give the number; % is assumed, so skip it.

Example compounds with recorded Max stimulation:
O=C(N[C@H](Cc1ccc(Cl)cc1)C(=O)N1CCC(Cn2cncn2)(C2CCCCC2)CC1)[C@H]1Cc2ccccc2CN1    99
NCCC(=O)N[C@H](Cc1ccc(Cl)cc1)C(=O)N1CCC(Cn2cncn2)(C2CCCCC2)CC1    92
CN(C)CCC(=O)N[C@H](Cc1ccc(Cl)cc1)C(=O)N1CCC(Cn2cncn2)(C2CCCCC2)CC1    98

Read the next record carefully.
Max stimulation in this record for `CNCCC(=O)N[C@H](Cc1ccc(Cl)cc1)C(=O)N1CCC(Cn2cncn2)(C2CCCCC2)CC1` : 98

====

biological target: Melanocortin receptor 4 (Homo sapiens, UniProt P32245); assay: Stimulation of adenylate cyclase in HEK293 cells expressing the human MC4R receptor was determined by measuring cAMP accumulation using the RPA559 SPA assay
Sequence (P32245 whole entry): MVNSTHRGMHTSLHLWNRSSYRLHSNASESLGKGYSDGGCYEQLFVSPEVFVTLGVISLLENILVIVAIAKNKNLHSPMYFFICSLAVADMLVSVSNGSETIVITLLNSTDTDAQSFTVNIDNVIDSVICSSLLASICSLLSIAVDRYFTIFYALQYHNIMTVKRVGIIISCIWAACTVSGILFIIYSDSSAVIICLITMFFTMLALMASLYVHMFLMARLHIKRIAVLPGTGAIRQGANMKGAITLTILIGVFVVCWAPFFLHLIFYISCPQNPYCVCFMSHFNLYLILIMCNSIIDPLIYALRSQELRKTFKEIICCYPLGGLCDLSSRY
observation-type: EC50 (nM)

NCCC(=O)N[C@H](Cc1ccc(Cl)cc1)C(=O)N1CCC(Cn2cncn2)(C2CCCCC2)CC1    170

[1] CNCCC(=O)N[C@H](Cc1ccc(Cl)cc1)C(=O)N1CCC(Cn2cncn2)(C2CCCCC2)CC1
[2] CN(C)CCC(=O)N[C@H](Cc1ccc(Cl)cc1)C(=O)N1CCC(Cn2cncn2)(C2CCCCC2)CC1
QUERY: Name the one with the greater EC50 value, either 1 or 2 as given. Could you answer with the label of the item you picked?
RESULT: 1
(1: 70 nM, 2: 40 nM)
